Target: Progesterone receptor (Homo sapiens)
Sequence (P06401 whole entry): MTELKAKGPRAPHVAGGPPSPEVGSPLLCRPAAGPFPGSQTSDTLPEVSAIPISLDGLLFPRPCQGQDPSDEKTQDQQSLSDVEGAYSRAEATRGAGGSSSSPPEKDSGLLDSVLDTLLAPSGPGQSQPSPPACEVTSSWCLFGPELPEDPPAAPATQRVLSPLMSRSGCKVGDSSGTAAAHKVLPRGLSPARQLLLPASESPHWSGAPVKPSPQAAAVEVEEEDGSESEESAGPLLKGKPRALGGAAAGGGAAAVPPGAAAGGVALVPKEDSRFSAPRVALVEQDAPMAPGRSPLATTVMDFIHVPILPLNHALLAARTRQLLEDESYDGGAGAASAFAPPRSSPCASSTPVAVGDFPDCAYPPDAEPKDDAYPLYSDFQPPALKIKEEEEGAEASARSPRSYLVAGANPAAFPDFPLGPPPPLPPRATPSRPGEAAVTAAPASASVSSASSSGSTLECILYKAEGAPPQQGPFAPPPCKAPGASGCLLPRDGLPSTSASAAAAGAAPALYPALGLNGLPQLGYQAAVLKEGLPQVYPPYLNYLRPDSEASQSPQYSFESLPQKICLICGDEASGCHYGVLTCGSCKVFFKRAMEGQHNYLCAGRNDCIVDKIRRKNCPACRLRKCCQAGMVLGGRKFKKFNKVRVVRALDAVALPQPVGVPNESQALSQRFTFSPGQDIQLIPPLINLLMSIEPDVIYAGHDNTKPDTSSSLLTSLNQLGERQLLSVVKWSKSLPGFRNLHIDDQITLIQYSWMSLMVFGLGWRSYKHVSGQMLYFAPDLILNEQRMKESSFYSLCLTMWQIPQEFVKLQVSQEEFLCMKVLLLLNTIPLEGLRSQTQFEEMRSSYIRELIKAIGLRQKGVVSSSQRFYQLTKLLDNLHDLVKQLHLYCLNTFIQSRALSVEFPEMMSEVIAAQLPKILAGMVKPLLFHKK
Experiment: Agonist activity at progesterone receptor B expressed in CV-1 cells by MMTV luciferase reporter gene assay
// values below are reported EC50
Kindly answer with a numeric value in µM, unit omitted.

Answered cases to consult:
[[record]]
compound = "Cc1c(C#N)c(Cl)nc2c3c(sc12)NC(=O)CC3c1ccccc1Cl (stereo not given)"
endpoint_label = "EC50"
value = 0.000794

[[record]]
compound = "Cc1c(C#N)c(N)nc2c3c(sc12)NC(=O)CC3c1ccccc1Cl (stereo not given)"
endpoint_label = "EC50"
value = 0.631

[[record]]
compound = "Cc1c(C#N)c(N)nc2c3c(sc12)NC(=O)C[C@@H]3c1ccccc1Cl"
endpoint_label = "EC50"
value = 0.2


Challenge: Please give measured EC50 of the following entry: Cc1c(C#N)c(N)nc2c3c(sc12)NC(=O)CC3c1ccccc1F (stereo not given)
Response given: 3.98

---

Measured Activity accompanies every entry in the list below.
molecular target: Progesterone receptor (Homo sapiens); assay: Agonist activity at progesterone receptor in human T47D cell after 24 hrs by alkaline phosphatase assay relative to progesterone
Please give a number only; it is taken to be in %.

[[record]]
compound = "Cc1c(C#N)c(N)nc2c3c(sc12)NC(=O)CC3c1ccccc1Cl (stereo not given)"
study_system = "Progesterone receptor (Homo sapiens)"
unit_of_measurement = "%"
value = 80

[[record]]
compound = "Cc1c(C#N)c(N)nc2c3c(sc12)NC(=O)CC3c1c(F)cccc1Cl (stereo not given)"
study_system = "Progesterone receptor (Homo sapiens)"
unit_of_measurement = "%"
value = 13

[[record]]
compound = "Cc1c(C#N)c(Cl)nc2c3c(sc12)NC(=O)CC3c1ccccc1Cl (stereo not given)"
study_system = "Progesterone receptor (Homo sapiens)"
unit_of_measurement = "%"
value = 116

[[record]]
compound = "Cc1c(C#N)c(N)nc2c3c(sc12)NC(=O)CC3c1ccccc1F (stereo not given)"
study_system = "Progesterone receptor (Homo sapiens)"
unit_of_measurement = "%"
value = 47


Turning now to a further compound:
Challenge: Provide measured Activity value, entry: Cc1c(C#N)c(N)nc2c3c(sc12)NC(=O)C[C@@H]3c1ccccc1Cl
Response given: 83

---

target: UniProtKB P10635
Sequence (P10635 whole entry): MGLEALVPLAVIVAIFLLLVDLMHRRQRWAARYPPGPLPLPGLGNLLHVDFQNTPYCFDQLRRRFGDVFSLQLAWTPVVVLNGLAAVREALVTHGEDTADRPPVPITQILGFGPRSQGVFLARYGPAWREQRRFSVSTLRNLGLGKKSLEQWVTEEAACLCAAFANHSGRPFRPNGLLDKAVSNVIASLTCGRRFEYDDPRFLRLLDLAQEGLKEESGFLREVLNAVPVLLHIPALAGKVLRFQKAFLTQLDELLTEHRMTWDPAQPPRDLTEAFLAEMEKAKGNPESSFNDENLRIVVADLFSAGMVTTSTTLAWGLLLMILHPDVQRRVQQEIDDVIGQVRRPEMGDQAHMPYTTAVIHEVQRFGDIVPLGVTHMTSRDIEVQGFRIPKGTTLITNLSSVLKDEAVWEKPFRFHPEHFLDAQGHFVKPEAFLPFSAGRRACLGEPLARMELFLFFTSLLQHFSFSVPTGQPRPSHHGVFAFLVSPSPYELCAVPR
Endpoint label: IC50

Challenge: Give the reported IC50 for this molecule. Cc1c(C#N)c(N)nc2c3c(sc12)NC(=O)CC3c1ccccc1Cl (stereo unspecified)
Response given: > 10 µM

---

molecular target: Androgen receptor (Homo sapiens, UniProt P10275); test: Agonist activity at androgen receptor expressed in CV-1 cells by MMTV luciferase reporter assay
Sequence (P10275 whole entry): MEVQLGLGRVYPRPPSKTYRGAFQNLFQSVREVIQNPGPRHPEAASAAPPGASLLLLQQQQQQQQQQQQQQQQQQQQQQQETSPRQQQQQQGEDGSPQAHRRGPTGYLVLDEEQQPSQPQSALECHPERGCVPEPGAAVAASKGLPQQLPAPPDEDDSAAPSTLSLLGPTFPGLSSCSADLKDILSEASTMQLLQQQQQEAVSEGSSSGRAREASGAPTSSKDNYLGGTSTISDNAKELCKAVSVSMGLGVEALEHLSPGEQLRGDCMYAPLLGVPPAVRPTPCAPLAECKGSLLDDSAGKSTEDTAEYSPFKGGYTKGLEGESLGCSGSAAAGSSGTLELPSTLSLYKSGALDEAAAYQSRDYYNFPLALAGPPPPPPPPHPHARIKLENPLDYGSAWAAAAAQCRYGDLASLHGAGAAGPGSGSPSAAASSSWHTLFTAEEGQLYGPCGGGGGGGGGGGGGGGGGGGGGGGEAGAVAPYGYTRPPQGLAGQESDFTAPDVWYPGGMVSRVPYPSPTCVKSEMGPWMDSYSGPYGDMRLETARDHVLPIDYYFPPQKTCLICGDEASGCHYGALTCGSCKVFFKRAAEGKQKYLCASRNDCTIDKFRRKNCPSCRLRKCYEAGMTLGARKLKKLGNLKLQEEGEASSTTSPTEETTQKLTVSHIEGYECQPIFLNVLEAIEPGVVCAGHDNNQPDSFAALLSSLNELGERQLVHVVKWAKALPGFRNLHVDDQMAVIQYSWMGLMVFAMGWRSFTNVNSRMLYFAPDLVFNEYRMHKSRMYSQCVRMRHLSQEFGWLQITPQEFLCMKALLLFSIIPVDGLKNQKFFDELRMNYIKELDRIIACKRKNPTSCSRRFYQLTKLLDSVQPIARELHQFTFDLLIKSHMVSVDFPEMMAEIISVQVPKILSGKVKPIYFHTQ
Endpoint label: EC50

Challenge: Give recorded EC50. Cc1c(C#N)c(Cl)nc2c3c(sc12)NC(=O)CC3c1ccccc1Cl (stereo unspecified)
Response given: > 10 µM

---

system: Mus musculus; assay: Blood clearance in mouse at 0.5 mg/kg, iv and 1 mg/kg, po; assay type: ADME, organism-based; settings: in vivo
Endpoint label: clearance (mL/min/kg)
Response body: numeric value in mL/min/kg, unit text excluded.

Challenge: Provide one value: measured clearance of Cc1c(C#N)c(N)nc2c3c(sc12)NC(=O)CC3c1ccccc1Cl (stereo unspecified)
Response given: 24

---

Reported pEC50 values follow for various compounds
molecular target: Progesterone receptor (Homo sapiens); assay: Agonist activity at progesterone receptor B expressed in CV-1 cells by MMTV luciferase reporter gene assay
pEC50: −log10 of the molar value.

[[record]]
compound = "COc1ccccc1C1CC(=O)Nc2sc3c(C)c(C#N)c(N)nc3c21 (centres undefined)"
value = "< 5.00"


Challenge: Please list pEC50 recorded for the compound Cc1c(C#N)c(O)nc2c3c(sc12)NC(=O)CC3c1ccccc1Cl (centres undefined)
Response given: < 5.00

Challenge: Quick one: give measured pEC50 for Cc1c(C#N)c(N)nc2c3c(sc12)NC(=O)CC3c1c(F)cccc1Cl (centres undefined)
Response given: 5.40

Challenge: For the compound Cc1c(C#N)c(N)nc2c3c(sc12)NC(=O)CC3c1ccc(Cl)cc1Cl (centres undefined) , give its reported pEC50.
Response given: < 5.00

---

target: UniProt P06401; assay: Agonist activity at progesterone receptor in human T47D cell after 24 hrs by alkaline phosphatase assay; format: functional, cell-based
Endpoint label: pEC50
Give your answer as a number; write no unit.

Below, each entry is followed by its recorded pEC50 result.
[[record]]
compound = "Cc1c(C#N)c(N)nc2c3c(sc12)NC(=O)C[C@@H]3c1ccccc1Cl"
value = 7.4

[[record]]
compound = "Cc1c(C#N)c(N)nc2c3c(sc12)NC(=O)CC3c1ccccc1Cl (stereo not given)"
value = 7.1

[[record]]
compound = "Cc1c(C#N)c(N)nc2c3c(sc12)NC(=O)CC3c1c(F)cccc1Cl (stereo not given)"
value = 6.1

[[record]]
compound = "Cc1c(C#N)c(N)nc2c3c(sc12)NC(=O)CC3c1ccccc1F (stereo not given)"
value = 6.4


Next, consider the following compound.
Challenge: # lookup: UniProt P06401 pEC50, key = Cc1c(C#N)c(Cl)nc2c3c(sc12)NC(=O)CC3c1ccccc1Cl (stereo not given)
Response given: 8.6

---

assay: Half life in mouse at 0.5 mg/kg, iv and 1 mg/kg, po; format: ADME, organism-based; settings: in vivo
Endpoint label: half-life (h)
Give the number; h is assumed, so skip it.

Challenge: For the molecule Cc1c(C#N)c(N)nc2c3c(sc12)NC(=O)CC3c1ccccc1Cl (stereo unspecified) , report half-life.
Response given: 1.1

---

The molecules listed here are annotated with their IC50.
Target: Progesterone receptor (Homo sapiens, UniProt P06401)
Sequence (P06401 whole entry): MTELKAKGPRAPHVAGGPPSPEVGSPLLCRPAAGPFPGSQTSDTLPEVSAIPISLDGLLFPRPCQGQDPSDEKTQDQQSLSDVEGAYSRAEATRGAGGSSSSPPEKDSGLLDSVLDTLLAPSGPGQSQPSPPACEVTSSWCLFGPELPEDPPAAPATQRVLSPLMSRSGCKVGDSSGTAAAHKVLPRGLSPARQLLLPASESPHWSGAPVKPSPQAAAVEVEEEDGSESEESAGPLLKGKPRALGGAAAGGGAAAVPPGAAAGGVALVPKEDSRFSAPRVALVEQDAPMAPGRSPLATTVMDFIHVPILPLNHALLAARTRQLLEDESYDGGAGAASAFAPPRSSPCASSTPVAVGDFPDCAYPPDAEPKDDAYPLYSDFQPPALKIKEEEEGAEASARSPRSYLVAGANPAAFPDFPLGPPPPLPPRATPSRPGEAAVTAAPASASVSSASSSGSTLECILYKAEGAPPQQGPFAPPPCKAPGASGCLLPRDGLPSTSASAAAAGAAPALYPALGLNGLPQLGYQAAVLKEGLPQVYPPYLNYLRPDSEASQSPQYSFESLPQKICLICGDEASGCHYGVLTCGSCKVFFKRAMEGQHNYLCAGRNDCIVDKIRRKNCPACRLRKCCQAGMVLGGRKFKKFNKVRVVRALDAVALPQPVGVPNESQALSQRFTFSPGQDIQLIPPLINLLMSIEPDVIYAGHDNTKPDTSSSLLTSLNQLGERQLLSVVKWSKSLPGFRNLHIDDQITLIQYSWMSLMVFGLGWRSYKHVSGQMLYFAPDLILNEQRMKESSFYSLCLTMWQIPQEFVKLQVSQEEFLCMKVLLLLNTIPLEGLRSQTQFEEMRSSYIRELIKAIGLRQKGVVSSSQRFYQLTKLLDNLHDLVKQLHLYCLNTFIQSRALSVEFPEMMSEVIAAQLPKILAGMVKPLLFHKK
Kindly answer with a numeric value in nM, unit omitted.

Consider the worked cases shown below.
[[record]]
molecule = "Cc1c(C#N)c(N)nc2c3c(sc12)NC(=O)CC3c1cc(Cl)ccc1Cl (stereo unspecified)"
study_system = "Progesterone receptor (Homo sapiens, UniProt P06401)"
value = 1000

[[record]]
molecule = "Cc1c(C#N)c(N)nc2c3c(sc12)NC(=O)C[C@H]3c1ccccc1Cl"
study_system = "Progesterone receptor (Homo sapiens, UniProt P06401)"
value = 6310


Challenge: Please supply the value of reported IC50 for the item Cc1c(C#N)c(N)nc2c3c(sc12)NC(=O)CC3c1cccc(Cl)c1Cl (stereo unspecified)
Response given: 794

Challenge: Give the reported IC50 for this molecule. Cc1c(C#N)c(Cl)nc2c3c(sc12)NC(=O)CC3c1ccccc1Cl (stereo unspecified)
Response given: 50.1

Challenge: Answer with the recorded IC50 of Cc1c(C#N)c(N)nc2c3c(sc12)NC(=O)CC3c1c(F)cccc1Cl (stereo unspecified) only.
Response given: 1260
